- target system: Human immunodeficiency virus type 1 reverse transcriptase (Human immunodeficiency virus 1)
endpoint: pIC50
# pIC50: negative log10 of molar concentration; output just the value

Past entries and their recorded results:
• C[C@H](Cn1cnc2c(N)ncnc21)OCP(=O)(O)O [TENOFOVIR ANHYDROUS] = 6.42
• Cc1cn([C@H]2C=C[C@@H](COP(=O)(O)OP(=O)(O)OP(=O)(O)O)O2)c(=O)[nH]c1=O [STAVUDINE TRIPHOSPHATE] = 6.41
• Cc1cn([C@H]2CC[C@@H](OCP(=O)(O)O)O2)c(=O)[nH]c1=O = 5.27

Shifting focus to the molecule that follows.
Could you share what pIC50 was measured for "Cc1cn([C@H]2C=C[C@@H](OCP(=O)(O)O)O2)c(=O)[nH]c1=O" , tested on Human immunodeficiency virus type 1 reverse transcriptase (Human immunodeficiency virus 1)?
6.41

====

- target system: Human immunodeficiency virus type 1 reverse transcriptase (Human immunodeficiency virus 1, UniProt Q72547)
endpoint: IC50
A complete answer gives the number followed by the unit.

* Cc1cn([C@H]2C=C[C@@H](CO)O2)c(=O)[nH]c1=O | 0.06 µM

What value of IC50 has been reported for the following compound? "Cc1cn([C@H]2CC[C@@H](OCP(=O)(O)O)O2)c(=O)[nH]c1=O.O=P(O)(O)OP(=O)(O)O"
5.4 µM

What value of IC50 has been reported for the following compound? "Cc1cn([C@H]2CC[C@@H](CO)O2)c(=O)[nH]c1=O"
0.12 µM

====

- assay procedure: Cytotoxicity against MT2 cells
- Type: cell-based
- assay context: human
endpoint: CC50

Past entries and their recorded results:
* CC(C)OC(=O)OCOP(=O)(CO[C@H](C)Cn1cnc2c(N)ncnc21)OCOC(=O)OC(C)C.O=C(O)/C=C/C(=O)O [TENOFOVIR DISOPROXIL FUMARATE] | > 50 µM
* Cc1cn([C@H]2CC[C@@H](OCP(=O)(O)O)O2)c(=O)[nH]c1=O | > 500 µM
* Cc1cn([C@H]2C=C[C@@H](OCP(=O)(O)O)O2)c(=O)[nH]c1=O | > 500 µM

What value of CC50 has been reported for the following compound? "Cc1cn([C@H]2CC[C@@H](OCP(=O)(OCOC(=O)OC(C)C)OCOC(=O)OC(C)C)O2)c(=O)[nH]c1=O"
> 50 µM

What value of CC50 has been reported for the following compound? "Cc1cn([C@H]2CC[C@@H](OCP(=O)(O)O)O2)c(=O)[nH]c1=O.O=P(O)(O)OP(=O)(O)O"
> 500 µM

What value of CC50 has been reported for the following compound? Cc1cn([C@H]2C=C[C@@H](COP(=O)(O)OP(=O)(O)OP(=O)(O)O)O2)c(=O)[nH]c1=O [STAVUDINE TRIPHOSPHATE]
> 500 µM

What value of CC50 has been reported for the following compound? Cc1cn([C@H]2C[C@H](N=[N+]=[N-])[C@@H](CO)O2)c(=O)[nH]c1=O [ZIDOVUDINE]
> 200 µM

What value of CC50 has been reported for the following compound? C[C@H](Cn1cnc2c(N)ncnc21)OCP(=O)(O)O [TENOFOVIR ANHYDROUS]
> 200 µM

What value of CC50 has been reported for the following compound? "Cc1cn([C@H]2C=C[C@@H](OCP(=O)(OCOC(=O)OC(C)C)OCOC(=O)OC(C)C)O2)c(=O)[nH]c1=O"
10 µM

What value of CC50 has been reported for the following compound? Cc1cn([C@H]2C=C[C@@H](CO)O2)c(=O)[nH]c1=O [STAVUDINE]
286 µM

Every entry's value here was drawn from ChEMBL document CHEMBL1143735.
